# test description: Dynamic solubility in biorelevant media (HPLC)
# Format: physicochemical
# condition parameters: FeSSGF, 24h, 37°C
measured property: solubility at 24 h
Answer format: value, then unit.

Problem: Record request: solubility at 24 h value, item O=C(N[C@@H]1CCCC[C@H]1N1Cc2ccc(-c3nnc(C(F)F)o3)cc2S1(=O)=O)C(F)F [Crystal Form I]
Result: 55 µg/mL

----------
# test description: Dynamic solubility in biorelevant media (HPLC)
# Type: physicochemical
# condition parameters: FaSSIF, 24h, 37°C
measured property: solubility at 24 h (µg/mL)
Express the result in µg/mL but write the number alone.

Problem: Entry under review: O=C(N[C@@H]1CCCC[C@H]1N1Cc2ccc(-c3nnc(C(F)F)o3)cc2S1(=O)=O)C(F)F [Crystal Form I] . Reported solubility at 24 h?
Result: 96.2

----------
# test description: Dynamic solubility in biorelevant media (HPLC)
# Type: physicochemical
# condition parameters: FeSSIF, 24h, 37°C
measured property: solubility at 24 h (µg/mL)
Value expressed in µg/mL; do not type the unit.

Problem: Query: solubility at 24 h; subject: O=C(N[C@@H]1CCCC[C@H]1N1Cc2ccc(-c3nnc(C(F)F)o3)cc2S1(=O)=O)C(F)F [Crystal Form I]
Result: 87.5

----------
# test description: Solubility in water (HPLC)
# Type: physicochemical
# condition parameters: H2O, 37°C
measured property: solubility at 24 h (µg/mL)
# output: bare number, implied unit µg/mL

Problem: Requested field: solubility at 24 h. Item: O=C(N[C@@H]1CCCC[C@H]1N1Cc2ccc(-c3nnc(C(F)F)o3)cc2S1(=O)=O)C(F)F [Crystal Form I]
Result: 49.8

----------
# test description: Dynamic solubility in biorelevant media (HPLC)
# Assay type: physicochemical
# condition parameters: FaSSGF, 24h, 37°C
measured property: solubility at 24 h (µg/mL)
Give your result in µg/mL as a bare value.

Problem: Returns the measured solubility at 24 h for the input molecule. Input: O=C(N[C@@H]1CCCC[C@H]1N1Cc2ccc(-c3nnc(C(F)F)o3)cc2S1(=O)=O)C(F)F [Crystal Form I]
Result: 51.9

----------
# test description: Dynamic solubility in biorelevant media (HPLC)
# Format: physicochemical
# condition parameters: FeSSGF, 1h, 37°C
measured property: solubility at 1 h (µg/mL)
Response body: numeric value in µg/mL, unit text excluded.

Problem: Which solubility at 1 h reading was recorded for the compound O=C(N[C@@H]1CCCC[C@H]1N1Cc2ccc(-c3nnc(C(F)F)o3)cc2S1(=O)=O)C(F)F [Crystal Form I] ?
Result: 45.5
